Measured On: AII receptor
Assay Method Text: Angiotensin II receptor binding (displacement of 3H-AII)
Experimental Setup: read-out: Angiotensin II Receptor Binding IC50; Table 25; rat adrenal cortical microsomes, 2 nM 3H-AII, 1 hour, room temperature
Experimental Endpoint: IC50 (nM)
Your answer should be a plain number; it is taken to be in nM.

Solved entries:
Compound | IC50 / nM
CCCCc1nc(Cl)c(CC(=O)OC)n1Cc1ccc(NC(=O)c2c(Cl)ccc(Cl)c2C(=O)O)cc1 | 18
CCc1nccn1Cc1ccc(NC(=O)c2ccccc2NS(=O)(=O)C(F)(F)F)cc1 | 4900
O=C(O)c1ccccc1C(=O)Nc1ccc(Cn2ccnc2CC2CCCCC2)cc1 | 2800
CCCCc1nc(Cl)c(CC(=O)OC)n1Cc1ccc(NC(=O)c2cccc(NS(=O)(=O)C(F)(F)F)c2)cc1 | 940
CCCCc1nc(Cl)c(/C=C/CO)n1Cc1ccc(NC(=O)c2ccccc2C(=O)O)cc1 [Example 227] | 110
CCCc1nc(Cl)c(CO)n1Cc1ccc(-c2ccccc2C(=O)O)cc1 | 160

What value of IC50 has been recorded for this entry: CCCc1nc(Cl)c(CO)n1Cc1ccc(-c2ccccc2-c2nn[nH]n2)cc1
20

Moving on to CCCCc1nc(Cl)c(Cc2nn[nH]n2)n1Cc1ccc(NC(=O)c2ccccc2NS(=O)(=O)C(F)(F)F)cc1
1100

Okay, and CCCCc1nc(Cl)c(CNC(=O)OC)n1Cc1ccc(-c2ccccc2-c2nnn[nH]2)cc1 ?
60

Do the same for CCCCc1nc(Cl)c(/C=C/COC(C)=O)n1Cc1ccc(NC(=O)c2ccccc2C(=O)O)cc1 please
76

Please do the same for CCc1nc(Cl)c(CO)n1Cc1ccc(-c2ccccc2C(=O)O)cc1 as well.
1700

Next compound: CCCCc1nc(CO)c(I)n1Cc1ccc(-c2ccccc2C(=O)O)cc1
680

Now consider CCCCc1nc(Cl)c(CO)n1Cc1ccc(-c2cccc(C(=O)OCOC(=O)C(C)(C)C)c2)cc1 and answer again.
1300

What do you have for CCCCc1nc(C(F)(F)F)c(C(=O)OCC)n1Cc1ccc(-c2ccccc2-c2nnn[nH]2)cc1 [Example 140I] ?
52

Same read-out for CCC/C=C\c1nc(Cl)c(CO)n1Cc1ccc(-c2ccccc2C(=O)O)cc1 ?
2300

Try this compound too: CCCCc1nc(Cl)c(CO)n1Cc1ccc(-c2ccccc2C(=O)NO)cc1
4100

Entry to check: CCCCc1nc(Cl)c(CCCOC(C)=O)n1Cc1ccc(NC(=O)c2ccccc2C(=O)O)cc1
110

---

Tested on: Renal Hypertensive Rats
Assay Method Text: Antihypertensive effects in renal hypertensive rats
Assay type: in vivo
Experimental Setup: Rattus norvegicus; Table 25; tested as sodium salt; intravenous, 10 mg/kg or less
Experimental Endpoint: minimal effective dose at 10 mg/kg

Observe how each entry below is paired with its result.
Compound | Experimental Endpoint | Measured
CCCCc1nc(Cl)c(CNC(=O)NC(C)c2cccc3ccccc23)n1Cc1ccc(-c2ccccc2C(=O)O)cc1 (stereo not shown) | minimal effective dose at 10 mg/kg | < 10 mg/kg
CCCCc1nc(Cl)c(COC)n1Cc1ccc(C(=O)Nc2ccccc2-c2nnn[nH]2)cc1 | minimal effective dose at 10 mg/kg | > 100 mg/kg
CCCCc1nc(Cl)c(CNS(C)(=O)=O)n1Cc1ccc(C(=O)c2ccccc2C(=O)O)cc1 | minimal effective dose at 10 mg/kg | < 10 mg/kg

# get_value(readout='minimal effective dose at 10 mg/kg', item= CCCCc1nc(Cl)c(Cc2nnn[nH]2)n1Cc1ccc(C(=O)c2ccccc2C(=O)O)cc1 )
< 10 mg/kg

---

Measured On: AII receptor
Assay Method Text: Angiotensin II receptor binding (displacement of 3H-AII)
Experimental Setup: read-out: Angiotensin II Receptor Binding IC50; Table 25; rat adrenal cortical microsomes, 2 nM 3H-AII, 1 hour, room temperature
The reader will find reported pIC50 values listed item by item below.
Quick note: pIC50 means taking -log10 of the concentration in moles per liter.

A selection of reference data follows.
Molecule | Experimental Endpoint | Measured
CCCCc1nc(Br)c(CO)n1Cc1ccc(-c2ccccc2C(=O)O)cc1 | pIC50 | 7.05
CCCCc1nc(Cl)c(CCC(=O)OC)n1Cc1ccc(NC(=O)c2ccccc2NS(=O)(=O)C(F)(F)F)cc1 | pIC50 | 6.80
CCCCc1nc(CO)c([N+](=O)[O-])n1Cc1ccc(-c2ccccc2C(=O)O)cc1 | pIC50 | 6.05
CCCCc1nc(CO)c(Cl)n1Cc1ccc(-c2ccccc2-c2nn[nH]n2)cc1 | pIC50 | 7.05

What value of pIC50 has been recorded for this entry: CCCc1nc(Cl)c(C=O)n1Cc1ccc(-c2ccccc2-c2nnn[nH]2)cc1
7.30

// query: CCCCc1nc(Cl)c(/C=C/CO)n1Cc1ccc(NC(=O)c2ccccc2C(=O)O)cc1 [Example 241]
6.77

Subsequent entry: CCCCc1nc(CO)c(Cl)n1Cc1ccc(-c2ccccc2C(=O)O)cc1
5.92

Same lookup for CCCCc1nc(Cl)c(C(=O)O)n1Cc1ccc(-c2ccccc2C(=O)O)cc1 , please.
7.04

Now try CCCCc1nc(Cl)c(COC)n1Cc1ccc(C(=O)N[C@@H](Cc2ccccc2)C(=O)O)cc1 .
5.21

Also, CCCCc1nc(Cl)c(CCC(=O)N2CCOCC2)n1Cc1ccc(NC(=O)c2ccccc2C(=O)O)cc1 please.
7.14

CCCCc1nc(Cl)c(CC(=O)OC)n1Cc1ccc(N2C(=O)c3ccccc3C2=O)cc1 , same question.
5.51

# repeat for CCCCc1nc(Cl)c(CCC(=O)O)n1Cc1ccc(-c2ccccc2C(=O)O)cc1
6.60

And the next one, CCCCc1nc(Cl)c(CC(=O)OC)n1Cc1ccc(NC(=O)/C=C\C(=O)O)cc1 ?
5.24

Cool, now CCCCc1nc(Cl)c(CO)n1Cc1ccc(-c2cccc(C)c2C(=O)O)cc1
5.72

Same question for CCCCc1nc(Cl)c(/C=C/CO)n1Cc1ccc(NC(=O)c2ccccc2NS(=O)(=O)C(F)(F)F)cc1 please.
6.22

Also check CCCCc1nc(Cl)c(CC(=O)O)n1Cc1ccc(OCc2ccccc2C(=O)O)cc1
5.64

Do the same for CCCCc1ncc(CO)n1Cc1ccc(-c2ccccc2C(=O)O)cc1 please
6.57

---

Parameter: pIC50. Scope: all listed entries.
Measured On: AII receptor
Assay Method Text: Angiotensin II receptor binding (displacement of 3H-AII)
Experimental Setup: read-out: Angiotensin II Receptor Binding IC50; Table 25; tested as sodium salt; rat adrenal cortical microsomes, 2 nM 3H-AII, 1 hour, room temperature
In textbook form, pIC50 equals minus log to base ten of the concentration in mol/L.

Solved entries:
Smi | pIC50
CCCCc1nc(Cl)c(Cc2nnn[nH]2)n1Cc1ccc(C(=O)c2ccccc2C(=O)O)cc1 | 6.48
CCCCc1nc(Cl)c(CC(=O)O)n1Cc1ccc(NC(=O)c2ccccc2C(=O)O)cc1 | 6.37
CCCCc1nc(Cl)c(CC(=O)OC)n1Cc1ccc(NC(=O)c2cccc(C)c2NS(=O)(=O)C(F)(F)F)cc1 | 6.72
CCCCc1nc(Cl)c(CNC(=O)NC)n1Cc1ccc(-c2ccccc2C(=O)O)cc1 | 6.62
CCCCc1nc(Cl)c(CC(=O)OC)n1Cc1ccc(NS(=O)(=O)C(F)(F)F)cc1 | 5.68
CCCCc1nc(Cl)c(COC)n1Cc1ccc(-c2ccccc2-c2nnn[nH]2)cc1 | 7.70
CCCCc1nc(Cl)c(CNC(=O)OC)n1Cc1ccc(-c2ccccc2C(=O)O)cc1 | 6.70
CCCCc1nc(Cl)c(CC(=O)OC)n1Cc1ccc(NC(=O)c2cc(I)ccc2NS(=O)(=O)C(F)(F)F)cc1 | 5.47

Using the record for CCCc1nccn1Cc1ccc(NC(=O)c2ccccc2C(=O)O)cc1 , report its pIC50.
5.43

# repeat for CCCCc1nc(Cl)c(CNC(=O)OC23CC4CC(CC(C4)C2)C3)n1Cc1ccc(-c2ccccc2C(=O)O)cc1
6.22

Cool, now CCCCc1nc(Cl)c(CC(=O)OC)n1Cc1ccc(NC(=O)c2ccccc2-c2ccccc2C(=O)O)cc1
6.72

Also need CCCCc1nc(Cl)c(CC(=O)OC)n1Cc1ccc(NC(=O)c2cc3ccccc3cc2C(=O)O)cc1 , thanks.
5.24

CCCCc1nc(Cl)c(CNC(=O)OCCC)n1Cc1ccc(-c2ccccc2C(=O)O)cc1 , same question.
6.25

Could you do the same for CCCCc1nc(Cl)c(CNS(=O)(=O)C(F)(F)F)n1Cc1ccc(C(=O)c2ccccc2C(=O)O)cc1 , please?
5.57

---

Measured On: AII receptor
Assay Method Text: Angiotensin II receptor binding (displacement of 3H-AII)
Experimental Setup: read-out: Angiotensin II Receptor Binding IC50; Table 25; rat adrenal cortical microsomes, 2 nM 3H-AII, 1 hour, room temperature
The entries below come with measured IC50 values attached.
The reply should contain only the number, in nM.

Compound | Unit Abbrev | IC50
CCCCc1nc(Cl)c(COC(C)C)n1Cc1ccc(-c2ccccc2C(=O)O)cc1 [Example 99] | nM | 90
CCCCc1nc([N+](=O)[O-])c(CO)n1Cc1ccc(-c2ccccc2C(=O)O)cc1 [Example 91] | nM | 260
CCCCc1nc(C(F)(F)F)c(C=O)n1Cc1ccc(-c2ccccc2-c2nnn[nH]2)cc1 [Example 133] | nM | 36

Given the compound CCCCc1nc(Cl)c(CCC(=O)OC)n1Cc1ccc(NC(=O)c2ccccc2C(=O)O)cc1 [Example 234] , what is its reported IC50?
64

Also, CCCCc1nc(CO)c(Cl)n1Cc1ccc(-c2occc2C(=O)O)cc1 (single isomer, unassigned) [Example 179] please.
4400
